Test system: THLE-5B-3A4
Assay: LC/LC/MS/MS peptide hits of biomarker polypeptides in conditioned media of treated hepatocytes
Assay type: cell-based, human
Conditions: 20 hr, concentrations of Table 1
Reported peptide hits BMS-PTX-808 values are given for each entry in this list.

{"compound": "Cc1c(C)c2c(c(C)c1O)CCC(C)(COc1ccc(CC3SC(=O)NC3=O)cc1)O2 (stereo not shown) [Troglitazone]", "peptide hits BMS-PTX-808": 10}
{"compound": "CCO[C@@H](Cc1ccc(OCCc2ccc(OS(C)(=O)=O)cc2)cc1)C(=O)O [Tesaglitazar]", "peptide hits BMS-PTX-808": 1}
{"compound": "Cc1oc(-c2ccccc2)nc1CCOc1ccc(C[C@H](Nc2ccccc2C(=O)c2ccccc2)C(=O)O)cc1 [Farglitazar]", "peptide hits BMS-PTX-808": 10}

Requested read-out peptide hits BMS-PTX-808, target or system THLE-5B-3A4, entry CC1(COc2ccc(CC3SC(=O)NC3=O)cc2)CCCCC1 (stereo not shown) [Ciglitazone]
14
